# Measured on: TLR8 (Homo sapiens, UniProt Q9NR97)
# Sequence (Q9NR97 27-1041): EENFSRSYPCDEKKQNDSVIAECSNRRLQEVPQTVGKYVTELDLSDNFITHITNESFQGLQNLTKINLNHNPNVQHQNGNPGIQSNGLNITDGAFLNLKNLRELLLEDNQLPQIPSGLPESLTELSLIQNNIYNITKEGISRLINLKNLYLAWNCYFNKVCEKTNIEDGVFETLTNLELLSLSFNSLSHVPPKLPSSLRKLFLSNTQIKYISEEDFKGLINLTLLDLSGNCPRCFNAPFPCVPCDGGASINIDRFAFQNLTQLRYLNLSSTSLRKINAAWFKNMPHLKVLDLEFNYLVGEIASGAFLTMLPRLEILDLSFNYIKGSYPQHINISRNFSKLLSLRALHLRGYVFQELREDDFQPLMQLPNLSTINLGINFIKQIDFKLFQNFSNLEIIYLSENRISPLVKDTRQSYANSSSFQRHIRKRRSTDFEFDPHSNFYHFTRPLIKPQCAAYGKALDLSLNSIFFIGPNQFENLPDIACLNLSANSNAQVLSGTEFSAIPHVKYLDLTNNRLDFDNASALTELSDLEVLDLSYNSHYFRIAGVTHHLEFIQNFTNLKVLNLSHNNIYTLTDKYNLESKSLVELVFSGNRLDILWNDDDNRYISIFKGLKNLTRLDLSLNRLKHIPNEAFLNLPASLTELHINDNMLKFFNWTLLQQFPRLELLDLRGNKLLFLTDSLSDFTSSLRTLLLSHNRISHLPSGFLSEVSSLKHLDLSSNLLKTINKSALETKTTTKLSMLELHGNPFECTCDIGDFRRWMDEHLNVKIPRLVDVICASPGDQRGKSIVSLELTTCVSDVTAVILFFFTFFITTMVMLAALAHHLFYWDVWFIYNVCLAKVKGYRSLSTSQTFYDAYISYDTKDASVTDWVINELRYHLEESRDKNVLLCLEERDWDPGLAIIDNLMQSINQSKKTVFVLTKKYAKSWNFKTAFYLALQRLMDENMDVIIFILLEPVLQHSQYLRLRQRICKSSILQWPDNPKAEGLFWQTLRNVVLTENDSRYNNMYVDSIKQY
# Measurement description: Dose dependent TLR8-mediated NF-κB-luciferase response in HEK293 cells transfected with TLR8 (Example 5)
# Format: cell-based
# Design: expressed in transfected cells; host or cells: HEK293 (ATCC CRL-1573), pIRES vector, G-418 selected, co-transfected with NFkB-luc reporter
# Condition summary: 3.0 μM
compounds and their reported Fold increase over vehicle
Lab book: enter the figure in fold, no units written.

Look over these answered cases.
• CCOCc1nc2c(N)nc3ccccc3c2n1CC(C)(C)NC(=O)NC(C)C = 1.7
• CCOCc1nc2c(N)nc3cc(-c4ccc(C(=O)N(C)OC)cc4)ccc3c2n1CC(C)(C)O = 6.7
• CCCCc1nc2c(N)nc3ccccc3c2n1CC(C)(C)CNC(=O)N1CCOCC1 = 1.7
• CCOCc1nc2c(N)nc3c(c2n1NC(C)C)CCCC3 = 2.7

Then this compound:
-- ask What does the data say about its Fold increase over vehicle? Entry: CCOCc1nc2c(N)nc3cc(-c4cccc(C(=O)N5CCCC5)c4)ccc3c2n1CC(C)(C)O
-- reply 3.2

----------
# Measured on: UniProt Q9NR97
# Sequence (Q9NR97 27-1041): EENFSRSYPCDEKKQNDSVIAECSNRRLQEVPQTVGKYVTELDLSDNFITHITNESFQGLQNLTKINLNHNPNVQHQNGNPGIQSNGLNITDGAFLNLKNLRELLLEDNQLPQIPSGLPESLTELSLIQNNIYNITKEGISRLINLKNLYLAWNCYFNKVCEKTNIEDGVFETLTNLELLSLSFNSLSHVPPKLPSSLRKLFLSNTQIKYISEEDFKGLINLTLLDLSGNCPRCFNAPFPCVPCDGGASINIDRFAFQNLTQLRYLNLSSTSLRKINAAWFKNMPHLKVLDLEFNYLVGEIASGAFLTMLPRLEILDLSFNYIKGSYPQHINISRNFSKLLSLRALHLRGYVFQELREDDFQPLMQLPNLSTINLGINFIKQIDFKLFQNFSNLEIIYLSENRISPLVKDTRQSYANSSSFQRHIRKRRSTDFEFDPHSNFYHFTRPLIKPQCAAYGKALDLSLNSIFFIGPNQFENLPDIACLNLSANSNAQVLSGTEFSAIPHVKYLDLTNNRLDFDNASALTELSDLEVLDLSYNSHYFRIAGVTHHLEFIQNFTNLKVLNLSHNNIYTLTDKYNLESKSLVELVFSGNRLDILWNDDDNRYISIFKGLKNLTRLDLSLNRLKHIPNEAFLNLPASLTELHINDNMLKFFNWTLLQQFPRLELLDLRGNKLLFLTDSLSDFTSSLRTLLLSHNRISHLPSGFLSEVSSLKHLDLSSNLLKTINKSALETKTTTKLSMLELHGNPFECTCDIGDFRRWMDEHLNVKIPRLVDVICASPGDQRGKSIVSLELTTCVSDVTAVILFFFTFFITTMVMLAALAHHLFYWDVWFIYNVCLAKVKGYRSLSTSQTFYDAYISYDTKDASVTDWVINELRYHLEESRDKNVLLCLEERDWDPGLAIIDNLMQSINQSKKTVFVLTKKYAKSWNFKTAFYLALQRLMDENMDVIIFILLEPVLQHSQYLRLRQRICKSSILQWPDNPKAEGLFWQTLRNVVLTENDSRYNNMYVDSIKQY
# Measurement description: Dose dependent TLR8-mediated NF-κB-luciferase response in HEK293 cells transfected with TLR8 (Example 5)
# Assay type: cell-based
# Set-up: expressed in transfected cells; host or cells: HEK293 (ATCC CRL-1573), pIRES vector, G-418 selected, co-transfected with NFkB-luc reporter
# Condition summary: 0.1 μM
# Description: Twenty-four hours before transfection, HEK293 cells were adhered to a 10 cm dish (Corning 430167, Corning Inc., Corning, N.Y.) at 37° C., 8% CO2. […] The transfected cells were plated in white opaque 96 well plates (Costar 3917, Corning Inc., Corning, N.Y.) at a concentration of 5×10^4 cells per well in 100 μL of HEK293 media and incubated at 37° C., 8% CO2 for 4 hours. […] Luminescence was measured on an LMAX luminometer (Molecular Devices Corp., Sunnyvale, Calif.). […]
Hi, to clarify the labels: label 1 covers Fold increase over vehicle from 1 fold upward, label 0 covers anything below 1 fold.

Example cases with answers are listed next.
* CCOCc1nc2c(N)nc3cc(-c4ccc(CO)cc4)ccc3c2n1CC1COC(C)(C)O1 (centres unmarked) | label 0
* CCOCc1nc2c(N)nc3ccccc3c2n1CC(C)(C)NC(=O)NC1CCCC1 | label 0
* COCCc1nc2c(N)nc3ccccc3c2n1CCCCNC(=O)c1cnc2ccccc2c1 | label 0
* CCOCc1nc2c(N)nc3cc(-c4ccncc4)ccc3c2n1CC(C)(C)O | label 1
* CCOCc1nc2c(N)nc3cc(-c4cccnc4)ccc3c2n1CC(C)(C)O | label 1

-- ask Is the recorded value of Fold increase over vehicle equal to or greater than 1 fold for this compound? COCCc1nc2c(N)nc3cc(-c4cccc(NS(C)(=O)=O)c4)ccc3c2n1CC(C)(C)O
-- reply label 1

-- ask Is the recorded value of Fold increase over vehicle equal to or greater than 1 fold for this compound? CCCCc1nc2c(N)nc3ccccc3c2n1CCCNC(=O)N1CCOCC1
-- reply label 0

-- ask Is the recorded value of Fold increase over vehicle equal to or greater than 1 fold for this compound? CCOCC(=O)NC(C)(C)Cn1c(COCC)nc2c(N)nc3ccccc3c21
-- reply label 1

-- ask Is the recorded value of Fold increase over vehicle equal to or greater than 1 fold for this compound? CCOCc1nc2c(N)nc3cc(-c4cccc(C(=O)N5CCCC5)c4)ccc3c2n1CC(C)(C)O
-- reply label 0

-- ask Is the recorded value of Fold increase over vehicle equal to or greater than 1 fold for this compound? CCOCc1nc2c(N)nc3cc(-c4cncc(CO)c4)ccc3c2n1CC(C)(C)O
-- reply label 1

-- ask Is the recorded value of Fold increase over vehicle equal to or greater than 1 fold for this compound? CCOCc1nc2c(N)nc3cc(-c4cccnc4)ccc3c2n1CC(O)CO (centres unmarked)
-- reply label 1

----------
# Measured on: TLR8 (Homo sapiens)
# Measurement description: Dose dependent TLR8-mediated NF-κB-luciferase response in HEK293 cells transfected with TLR8 (Example 5)
# Format: cell-based
# Design: expressed in transfected cells; host or cells: HEK293 (ATCC CRL-1573), pIRES vector, G-418 selected, co-transfected with NFkB-luc reporter
# Condition summary: 30 μM
Measured parameter: Fold increase over vehicle (fold)
Lab book: enter the figure in fold, no units written.

• COCCc1nc2c(N)nc3cc(-c4cccc(NS(C)(=O)=O)c4)ccc3c2n1CC(C)(C)O [IRM50] = 21.1

-- ask Record CCOCc1nc2c(N)nc3c(c2n1NC(C)C)CCCC3 [IRM60] : what is its Fold increase over vehicle with TLR8 (Homo sapiens)?
-- reply 9.1

-- ask Record COCCc1nc2c(N)nc3ccccc3c2n1CCCCNC(=O)c1cnc2ccccc2n1 [IRM38] : what is its Fold increase over vehicle with TLR8 (Homo sapiens)?
-- reply 7.8

-- ask Record CCOCc1nc2c(N)nc3cc(-c4ccc(CO)cc4)ccc3c2n1CC1COC(C)(C)O1 (centres unmarked) [IRM53] : what is its Fold increase over vehicle with TLR8 (Homo sapiens)?
-- reply 7.7

-- ask Record CCCCc1nc2c(N)nc3ccccc3c2n1CC(C)(C)CNC(=O)N1CCOCC1 [IRM46] : what is its Fold increase over vehicle with TLR8 (Homo sapiens)?
-- reply 7.3
